Biological target: CYP2C8 (Homo sapiens)
Sequence (P10632 1-490): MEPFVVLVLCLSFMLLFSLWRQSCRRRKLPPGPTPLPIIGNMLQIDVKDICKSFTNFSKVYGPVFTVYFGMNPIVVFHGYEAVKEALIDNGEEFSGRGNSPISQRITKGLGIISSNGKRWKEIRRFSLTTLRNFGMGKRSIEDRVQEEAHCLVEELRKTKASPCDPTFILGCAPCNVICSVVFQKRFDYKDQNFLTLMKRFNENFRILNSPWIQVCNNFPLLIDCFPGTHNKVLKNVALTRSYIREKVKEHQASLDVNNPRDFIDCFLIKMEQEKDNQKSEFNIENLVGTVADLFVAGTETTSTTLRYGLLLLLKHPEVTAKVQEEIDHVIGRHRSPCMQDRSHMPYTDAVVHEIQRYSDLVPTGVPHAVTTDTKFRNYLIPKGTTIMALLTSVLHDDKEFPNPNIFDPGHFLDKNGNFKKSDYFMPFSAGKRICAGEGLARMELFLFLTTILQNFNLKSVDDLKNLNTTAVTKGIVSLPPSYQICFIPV
pIC50: −log10 of the molar value.
Parameter Measured: pIC50

{"columns": ["Molecule", "System", "Reported"],
 "data": [
  ["CC(C)(C)OC(=O)/N=C(\\NC(=O)OC(C)(C)C)Nc1cc(Cl)ccn1", "CYP2C8 (Homo sapiens)", "< 4.00"],
  ["Nc1cc(Cl)ccn1 [Compound 2-AP, 2-amino-4-chloropyridine, reference compound]", "CYP2C8 (Homo sapiens)", "< 4.00"],
  ["CC(C)(C)OC(=O)/N=C(\\NC(=O)OC(C)(C)C)Nc1cc(C#N)ccn1", "CYP2C8 (Homo sapiens)", "< 4.00"]
]}

---

biological target: MSPa (Pseudomonas aeruginosa, UniProt Q9I636); test: Kinetic mode of action on MSPa
Sequence (Q9I636 whole entry): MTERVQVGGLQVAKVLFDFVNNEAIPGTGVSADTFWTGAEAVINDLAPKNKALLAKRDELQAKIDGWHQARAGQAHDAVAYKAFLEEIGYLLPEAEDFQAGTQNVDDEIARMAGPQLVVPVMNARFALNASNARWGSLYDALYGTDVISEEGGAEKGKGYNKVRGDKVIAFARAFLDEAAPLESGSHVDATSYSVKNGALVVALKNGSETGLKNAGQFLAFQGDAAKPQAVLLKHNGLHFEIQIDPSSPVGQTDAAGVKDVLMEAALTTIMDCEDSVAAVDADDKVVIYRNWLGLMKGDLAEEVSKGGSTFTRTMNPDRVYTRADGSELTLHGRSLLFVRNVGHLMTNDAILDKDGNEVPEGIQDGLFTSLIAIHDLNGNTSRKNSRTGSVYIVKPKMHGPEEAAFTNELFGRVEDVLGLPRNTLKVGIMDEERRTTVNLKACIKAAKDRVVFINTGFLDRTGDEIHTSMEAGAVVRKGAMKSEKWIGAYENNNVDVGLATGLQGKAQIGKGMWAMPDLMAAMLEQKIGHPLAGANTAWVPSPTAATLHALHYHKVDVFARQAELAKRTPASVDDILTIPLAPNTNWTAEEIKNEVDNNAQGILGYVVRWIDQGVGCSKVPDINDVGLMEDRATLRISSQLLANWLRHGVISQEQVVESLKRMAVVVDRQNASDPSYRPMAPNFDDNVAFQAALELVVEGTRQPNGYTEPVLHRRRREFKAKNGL
pKi: −log10 of the molar value.

{"columns": ["Test Smiles", "System", "pKi"],
 "data": [
  ["CC(C)(C)OC(=O)/N=C(\\NC(=O)OC(C)(C)C)Nc1cc(Cl)ccn1", "MSPa (Pseudomonas aeruginosa, UniProt Q9I636)", 5.35]
]}

---

target: ICLPa (isocitrate lyase from P. aeruginosa) (Pseudomonas aeruginosa, UniProt Q9I0K4); construct: made in house; assay: Inhibition of purified ICLPa enzymatic activity; type: biochemical; conditions: 75 µM compound; read-out: Enzyme Inhibition (%) at 75 µM ICLPa
Sequence (Q9I0K4 whole entry): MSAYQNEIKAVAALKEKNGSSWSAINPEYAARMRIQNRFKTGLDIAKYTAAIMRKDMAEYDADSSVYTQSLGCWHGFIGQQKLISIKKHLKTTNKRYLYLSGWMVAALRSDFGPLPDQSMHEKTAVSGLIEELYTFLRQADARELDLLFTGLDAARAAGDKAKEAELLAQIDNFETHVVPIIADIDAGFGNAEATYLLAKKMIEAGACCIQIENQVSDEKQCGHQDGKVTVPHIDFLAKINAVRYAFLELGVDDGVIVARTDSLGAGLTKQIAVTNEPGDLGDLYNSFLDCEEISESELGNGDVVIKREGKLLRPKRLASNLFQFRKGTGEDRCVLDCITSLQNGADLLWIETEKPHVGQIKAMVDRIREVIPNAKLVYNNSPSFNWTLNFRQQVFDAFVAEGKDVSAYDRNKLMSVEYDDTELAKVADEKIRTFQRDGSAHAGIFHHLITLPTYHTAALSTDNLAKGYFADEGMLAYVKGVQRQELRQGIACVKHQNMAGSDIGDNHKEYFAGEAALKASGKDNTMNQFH

{"columns": ["Molecule", "System", "inhibition at 75 µM [%]"],
 "data": [
  ["CC(C)(C)OC(=O)/N=C(\\NC(=O)OC(C)(C)C)Nc1ccnc(Cl)c1", "ICLPa (isocitrate lyase from P. aeruginosa) (Pseudomonas aeruginosa, UniProt Q9I0K4)", 43.8],
  ["CC(C)(C)OC(=O)/N=C(\\NC(=O)OC(C)(C)C)Nc1cc(C(F)(F)F)ccn1", "ICLPa (isocitrate lyase from P. aeruginosa) (Pseudomonas aeruginosa, UniProt Q9I0K4)", 4.3],
  ["Nc1cc(Cl)ccn1 [Compound 2-AP, 2-amino-4-chloropyridine, reference compound]", "ICLPa (isocitrate lyase from P. aeruginosa) (Pseudomonas aeruginosa, UniProt Q9I0K4)", 21]
]}

---

The following molecules are listed with their measured microsomal CLint at 0.5 µM values.
assay: Metabolic stability in rat liver microsomes; format: in vitro ADME; settings: rat, pooled rat liver microsomes, pH 7.4; RLM

{"columns": ["Molecule", "microsomal CLint at 0.5 µM, µL/min/mg"],
 "data": [
  ["Nc1cc(Cl)ccn1 [Compound 2-AP, 2-amino-4-chloropyridine, reference compound]", 6.33],
  ["CC(C)(C)OC(=O)/N=C(\\NC(=O)OC(C)(C)C)Nc1cc(C#N)ccn1", 53.9],
  ["CC(C)(C)OC(=O)/N=C(\\NC(=O)OC(C)(C)C)Nc1cc(Cl)ccn1", 27.3]
]}
